# System: 186277-243-T-J2-PDC spheroids with HUVEC/MSC, viability
# Run description: Anticancer human tumor 186277-243-T-J2-PDC patient-derived colon adenocarcinoma cell line growth inhibition [CLK]
# Measurement setup: second compound 10 µM; first compound 0.1 µM; active compounds read low
Measurement kind: viability, T/C (%)
Unit % implied. Number only.

For orientation, consider the following solved cases.
{"Molecule": "Nc1ccn(C2OC(CO)C(O)C2(F)F)c(=O)n1 (stereo not given) + CN1CCN(c2cc(C(=O)Nc3cc4cc(-c5cnn(C)c5)ccc4cn3)ccn2)CC1", "Target desc": "186277-243-T-J2-PDC spheroids with HUVEC/MSC, viability", "Reading unit": "%", "Recorded value": 0.83}
{"Molecule": "Nc1ccccc1NC(=O)c1ccc(CNC(=O)OCc2cccnc2)cc1 + CN1CCN(c2cc(C(=O)Nc3cc4cc(-c5cnn(C)c5)ccc4cn3)ccn2)CC1", "Target desc": "186277-243-T-J2-PDC spheroids with HUVEC/MSC, viability", "Reading unit": "%", "Recorded value": 0.57}
{"Molecule": "C=CC(=O)N1CCN(c2nc(=O)n(-c3c(C)ccnc3C(C)C)c3nc(-c4c(O)cccc4F)c(F)cc23)C(C)C1 (stereo not given) + CNC(=O)c1ccc(Nc2nc(OC3CCCC3)c3c(-c4ccc5nc(C)oc5c4)c[nH]c3n2)c(OC)c1", "Target desc": "186277-243-T-J2-PDC spheroids with HUVEC/MSC, viability", "Reading unit": "%", "Recorded value": 33.5}
{"Molecule": "C=C(F)C(=O)N1CCN(c2nc(OCC3CCCN3C)nc3c2CCN(c2cccc4cccc(Cl)c24)C3)CC1CC#N (stereo not given) + CN1CCN(c2cc(C(=O)Nc3cc4cc(-c5cnn(C)c5)ccc4cn3)ccn2)CC1", "Target desc": "186277-243-T-J2-PDC spheroids with HUVEC/MSC, viability", "Reading unit": "%", "Recorded value": 1}

Pending molecule:
Lookup: Need viability, T/C of C#Cc1c(F)ccc2cc(O)cc(-c3ncc4c(N5CC6CCC(C5)N6)nc(OCC56CCCN5CC(F)C6)nc4c3F)c12 (stereo not given) + CN1CCN(c2cc(C(=O)Nc3cc4cc(-c5cnn(C)c5)ccc4cn3)ccn2)CC1 , thanks.
Found: 0.54

* * *

# Test system: 186277-243-T-J2-PDC spheroids with HUVEC/MSC, viability
# Run description: Anticancer human tumor 186277-243-T-J2-PDC cell line growth inhibition [CLK]; active = viability on the fitted dose curve at most 10% of control; inactive = the rest;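 note: compound exposure lasted seven days before readout; 100% = DMSO vehicle control wells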
# Measurement setup: second compound 10 µM; first compound 0.316 µM
# From the text: A high-throughput screen of multi-cell type tumor spheroids was designed to identify active combinations of […] and targeted small molecules. Complex spheroids include a stromal component modeled by human endothelial cells (HUVEC) and fibroblasts modeled by human mesenchymal stem cells (MSCs). […] Compounds. […] If the clinical Cmax for an agent had not been determined, the highest concentration tested was 10 microM. […]
Form entry, call: pick from yes (1) (active), no (0) (inactive)

These recorded examples may help you get a feel for the data.
{"Compound": "C=CC(=O)N1CCN(c2nc(=O)n(-c3c(C)ccnc3C(C)C)c3nc(-c4c(O)cccc4F)c(F)cc23)C(C)C1 (stereo not given) + CN1CCN(c2cc(C(=O)Nc3cc4cc(-c5cnn(C)c5)ccc4cn3)ccn2)CC1", "Assigned category": "yes (1)"}
{"Compound": "CCN1CCN(Cc2ccc(Nc3ncc(F)c(-c4cc(F)c5nc(C)n(C(C)C)c5c4)n3)nc2)CC1 + CN1CCN(c2cc(C(=O)Nc3cc4cc(-c5cnn(C)c5)ccc4cn3)ccn2)CC1", "Assigned category": "yes (1)"}
{"Compound": "CCc1c2c(nc3ccc(O)cc13)-c1cc3c(c(=O)n1C2)COC(=O)[C@]3(O)CC + CNC(=O)c1ccc(Nc2nc(OC3CCCC3)c3c(-c4ccc5nc(C)oc5c4)c[nH]c3n2)c(OC)c1", "Assigned category": "yes (1)"}
{"Compound": "O=c1[nH]cc(F)c(=O)[nH]1 + CNC(=O)c1ccc(Nc2nc(OC3CCCC3)c3c(-c4ccc5nc(C)oc5c4)c[nH]c3n2)c(OC)c1", "Assigned category": "no (0)"}

Kindly consider the entry below.
Lookup: Field: outcome | Entry: O=C(c1cc(Cc2n[nH]c(=O)c3ccccc23)ccc1F)N1CCN(C(=O)C2CC2)CC1 + CNC(=O)c1ccc(Nc2nc(OC3CCCC3)c3c(-c4ccc5nc(C)oc5c4)c[nH]c3n2)c(OC)c1
Found: no (0)
